Cited source: ChEMBL document CHEMBL1201862

- Tested on: HOP-92
- Assay Details: NCI tumour cell line growth inhibition, 48 h
Calls of active or inactive are those of the source. Cut-off read from the data, not from the text of the source: active = GI50 up to about 1.1 µM and inactive = higher.
Entry note: the call must match one of true (active), false (inactive)

# Compound, Class Label
rows = [
    ("Cc1nc2c(nc1C)C(=O)C1=C(C2=O)C2C=CC1CC2", "false"),
    ("N#CSC#Cc1ccc(C#CSC#N)cc1", "false"),
    ("O=C(O)CNS(=O)(=O)c1ccc(NCc2ccccc2)cc1", "false"),
    ("CC[C@@]1(N(C)C)C(=O)OCc2c1cc1n(c2=O)Cc2cc3ccccc3nc2-1", "false"),
    ("COc1ccc(CC2Cc3ccccc3CCN2)cc1OC (stereo not given)", "false"),
]

*Q* Field: outcome | Entry: Clc1ccc(/C=N/C23CC4CC(CC(C4)C2)C3)cc1Cl
*A* false

*Q* Now consider C/C(=N/CC(=O)O)c1ccccc1 .
*A* false

*Q* Repeat for the following compound: O=[N+]([O-])c1cccc(C2=NOC3C4CCC(C4)C23)c1 (stereo not given)
*A* false

*Q* Try COc1ccc(/C=C\c2cc(OC)c3c(c2)OCO3)c(O)c1O next.
*A* false

*Q* Continue with O=c1o[nH]/c(=N/c2ccccc2)n1-c1ccccc1
*A* false

*Q* Another compound: CCCCCC(=O)OCC1(CO)C/C(=C\CC(C(C)C)C(C)C)C(=O)O1 (stereo not given)
*A* false

###

- System: OVCAR-5
- Assay Details: NCI tumour cell line growth inhibition, 48 h
Activity calls are given as the source filed them. Rule as the data show it: active = GI50 up to about 1.1 µM and inactive = higher.
Quantity Measured: GI50

Example cases with answers are listed next.
# Compound, Quantity Measured, Endpoint Result
records = [
    ("COc1ccc2c(c1)CCc1c-2n(CCN(C)C)c2ccc(OC)cc12", "GI50", "16.8 µM (inactive)"),
    ("S=C1Cc2cc3ccccc3nc2-c2ccccc2N1", "GI50", "51.2 µM (inactive)"),
    ("CC(=O)Nc1c(C)cc2c(nc3n2CCC3OC(C)=O)c1[N+](=O)[O-] (stereo unspecified)", "GI50", "> 100 µM (inactive)"),
]

*Q* Would you mind telling me what GI50 value was observed for N#CC1(C#N)C(C#N)(C#N)C12CCCCCC2 ?
*A* 16.4 µM (inactive)

*Q* Further, for CN(C)CCNC(=O)c1cccc2cc3c(Cl)cccc3nc12 ?
*A* 2.61 µM (inactive)

*Q* Try this compound next: CCCC[S+]([O-])CCC(N)C(=O)O (stereo unspecified)
*A* > 100 µM (inactive)

###

- Tested on: HCT-116
- Assay Details: NCI tumour cell line growth inhibition, 48 h
The source made the active and inactive calls. Rule as the data show it: active = GI50 up to about 1.1 µM and inactive = higher.
Quantity Measured: GI50

Known GI50 results, listed for orientation:
# Molecule, Assayed System, GI50
rows = [
    ("CCOC(=O)c1ccc(O)cc1", "HCT-116", "> 100 µM (inactive)"),
    ("O=C(O)c1ccc(C(c2c(O)oc3ccccc3c2=O)c2c(O)oc3ccccc3c2=O)cc1", "HCT-116", "> 100 µM (inactive)"),
]

*Q* If you can, please state the reported GI50 value of O=C(N/N=C1\C(=O)N(c2nccs2)C(=O)C(=O)C1c1nc2ccccc2s1)c1ccccc1O (stereo not given) .
*A* 29.9 µM (inactive)

*Q* Try this molecule next: N#CC1(C#N)C(C#N)(C#N)C12CCCCCC2
*A* 5.01 µM (inactive)

*Q* Same again, this time with Oc1cc(O)c2c(-c3c(O)c(-c4ccc(O)c(O)c4)[o+]c4cc(O)cc(O)c34)c(O)c(-c3ccc(O)c(O)c3)[o+]c2c1
*A* 48.8 µM (inactive)
